Data origin: patent US20190256584A1

// reported Kd for each item listed
- TARGET ENTITY: T1, Botulinum neurotoxin serotype C (BoNT/C) (Clostridium botulinum, UniProt P18640 2-1291)
- T1 sequence: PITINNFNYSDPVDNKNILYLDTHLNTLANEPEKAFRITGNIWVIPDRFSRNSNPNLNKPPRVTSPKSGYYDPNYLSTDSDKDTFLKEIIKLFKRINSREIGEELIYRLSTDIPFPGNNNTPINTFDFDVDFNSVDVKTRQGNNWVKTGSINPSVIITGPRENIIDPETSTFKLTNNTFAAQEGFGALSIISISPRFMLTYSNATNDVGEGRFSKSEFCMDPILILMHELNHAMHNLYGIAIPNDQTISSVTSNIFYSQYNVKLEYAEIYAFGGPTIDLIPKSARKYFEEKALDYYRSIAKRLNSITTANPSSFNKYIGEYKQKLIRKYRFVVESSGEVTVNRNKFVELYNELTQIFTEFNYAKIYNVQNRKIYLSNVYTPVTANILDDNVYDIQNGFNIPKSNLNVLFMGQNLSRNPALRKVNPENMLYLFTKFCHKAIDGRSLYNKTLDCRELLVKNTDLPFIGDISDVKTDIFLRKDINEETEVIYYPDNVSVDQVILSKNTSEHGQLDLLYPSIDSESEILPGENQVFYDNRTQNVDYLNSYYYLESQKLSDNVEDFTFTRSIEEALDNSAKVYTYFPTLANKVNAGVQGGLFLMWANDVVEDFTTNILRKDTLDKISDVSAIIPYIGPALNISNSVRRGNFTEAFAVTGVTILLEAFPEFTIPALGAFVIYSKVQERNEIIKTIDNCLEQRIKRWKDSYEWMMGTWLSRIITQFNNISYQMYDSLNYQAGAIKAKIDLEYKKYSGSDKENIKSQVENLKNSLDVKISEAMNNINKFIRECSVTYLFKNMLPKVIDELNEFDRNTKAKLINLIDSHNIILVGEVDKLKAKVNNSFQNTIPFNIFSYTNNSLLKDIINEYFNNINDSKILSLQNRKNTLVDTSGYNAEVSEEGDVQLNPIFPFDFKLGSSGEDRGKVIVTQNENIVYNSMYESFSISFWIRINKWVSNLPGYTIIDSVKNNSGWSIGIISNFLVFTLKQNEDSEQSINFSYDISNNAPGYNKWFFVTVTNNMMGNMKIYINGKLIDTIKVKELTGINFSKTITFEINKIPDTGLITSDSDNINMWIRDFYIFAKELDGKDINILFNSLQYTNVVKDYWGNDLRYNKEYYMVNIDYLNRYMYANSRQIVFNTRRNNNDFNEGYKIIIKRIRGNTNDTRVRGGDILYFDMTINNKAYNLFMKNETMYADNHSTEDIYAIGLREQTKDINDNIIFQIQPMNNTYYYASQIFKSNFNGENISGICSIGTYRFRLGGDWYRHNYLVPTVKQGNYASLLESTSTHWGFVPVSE
- TEST METHOD NOTES: range-finding KinExA, IgG

BINDER	Kd, pM
4C10.8 IgG (antibody, V domains shown) VH: QVQLVQSGGGVVQPGRSLRLSCGASRFTFSGFDMHWVRQAPGKGLEWVARISHDGSMADYADSLRGRFTISRDNSKNTLYLQMNSLRVEDTALYYCAKDPWRSGSYPAFEIWGQGTMVTVSS VL: EIVLTQSPSFLSAFIGDRITITCRASQGISNRLAWYQQKPGKAPNLLIYPASTLQSGVPSRFSGSGSGTDFTLTISSLQPEDFATYYCQQANSFPLTFGGGTKVEIKR	3.5
4C10.20 IgG (antibody, V domains shown) VH: QVQLVQSGGGVVQPGRSLRLSCGASRFTFSGFDMHWVRQAPGKGLEWVARISHDGSMADYADSLRGRFTISRDNSKNTLYLQMNSLRVEDTALYYCAKDPWRSGSYPAFEIWGQGTMVTVSS VL: EIVLTQSPSFLSAFIGDRITITCRASQGIGNRLAWYQQKPGKAPNLLIYPASTLQSGVPSRFSGSGSGTDFTLTISSLQPEDFATYYCQQANSFPLTFGGGTKVEIKR	1.02
4C10.22 IgG (antibody, V domains shown) VH: QVQLVQSGGGVVQPGRSLRLSCGASGFKFSGFDMHWVRQAPGKGLEWVARISHDGSMADYADSLRGRFTISRDNSKNTLYLQMNSLRVEDTALYYCAKDPWRSGSYPAFEIWGQGTMVTVSS VL: EIVLTQSPSFLSAFIGDRITITCRASQGISNRLAWYQQKPGKAPNLLIYPASTLQSGVPSRFSGSGSGTDFTLTISSLQPEDFATYYCQQANSFPLTFGGGTKVEIKR	1.92
